- TARGET_DESC: T1, His9-hMSR1 (human MSR1 extracellular domain) (Homo sapiens, UniProt P21757)
- T1 construct: human MSR1 extracellular domain expressed with a N-terminal nonahistidine tag; His9 (nonahistidine) (N); purchased R&D Systems 2708-MS
- T1 sequence (P21757 77-451 limits assumed): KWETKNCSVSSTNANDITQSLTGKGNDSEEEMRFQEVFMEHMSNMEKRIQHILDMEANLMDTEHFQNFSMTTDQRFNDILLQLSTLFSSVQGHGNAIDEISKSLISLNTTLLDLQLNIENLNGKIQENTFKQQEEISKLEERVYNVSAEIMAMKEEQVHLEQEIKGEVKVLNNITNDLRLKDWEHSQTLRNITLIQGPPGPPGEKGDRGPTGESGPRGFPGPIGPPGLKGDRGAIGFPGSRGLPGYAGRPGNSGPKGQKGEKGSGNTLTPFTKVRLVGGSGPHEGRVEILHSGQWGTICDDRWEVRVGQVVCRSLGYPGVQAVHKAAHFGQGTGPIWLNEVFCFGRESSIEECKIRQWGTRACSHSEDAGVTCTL
- PROTOCOL: Biacore surface plasmon resonance binding kinetics of anti-MSR1 mAbs, antibody-capture format
- TEST_PARAMETERS: 25° C.; analyte His9-hMSR1; calculated from kinetic rates; NB = no binding observed
- Experimental: Binding affinities and kinetic constants of human anti-MSR1 antibodies for different MSR1 reagents were determined by real-time surface plasmon resonance (Biacore 4000). […] The association rate (ka) and dissociation rate (kd) were determined by fitting the real-time binding sensorgrams to a 1:1 binding model with mass transport limitation using Scrubber 2.0c curve-fitting software. […]
OBSERVATION_TYPE: pKd
Reminder that pKd means the negative base-10 logarithm of the concentration expressed in mol/L.

In: // lookup pKd for H1H21231N: "anti-MSR1 antibodies ... (21227N, 21231N, 21234N) were produced with the original human Fcγ portion"; "H1H" = human IgG1 Fc (antibody, V domains shown, human IgG1 Fc, "anti-MSR1 antibodies ; (21227N, 21231N, 21234N) were produced with the original human Fcγ portion"; "H1H" = human IgG1 Fc) VH: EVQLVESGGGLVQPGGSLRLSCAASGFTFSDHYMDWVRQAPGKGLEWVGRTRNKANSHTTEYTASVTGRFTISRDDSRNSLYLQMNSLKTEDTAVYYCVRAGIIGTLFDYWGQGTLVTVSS VL: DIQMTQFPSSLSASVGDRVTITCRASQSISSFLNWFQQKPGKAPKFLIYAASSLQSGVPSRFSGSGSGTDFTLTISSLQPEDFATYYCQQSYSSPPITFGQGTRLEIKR
Out: 10.68
